# experimental_protocol: gradient 5% acetonitrile 3 min, to 50% in 2 min, to 85% in 15 min, held 3 min, 100 µL/min
# experimental_parameters: column: Zorbax Extend-C18 2.1 x 50 mm; eluents: water / acetonitrile, 0.1% formic acid
observation_type: RP-LC retention time (s)

1. COC[C@@H]1CN(S(=O)(=O)c2ccc(F)cc2)C[C@H]1c1nc(C)no1
2. CCN(CC)CCSc1ccc(C(=O)N2CCN(c3ncccn3)CC2)cn1
Q: Please compare: 1 and 2 . Report which one has the smaller RP-LC retention time value. Use the label to indicate which entry you chose.
A: 2

a. CCCn1cc(S(=O)(=O)Nc2cc(C)ccc2F)c2cccnc21
b. NS(=O)(=O)c1ccc(CCNC(=O)c2coc(NC(=O)c3cccs3)n2)cc1
Q: Which has the smaller recorded RP-LC retention time, a or b ? Pick one; state its label.
A: b
(b: 603 s, a: 921 s)

I. CC(C)OCCCNC(=O)c1nnc(-c2ccc(S(=O)(=O)N3CCCC3)cc2)o1
II. CCOC(=O)c1cnc2nc(C)ccc2c1Nc1ccc(OC)c(OC)c1
III. Fc1ccc(-c2csc(Cc3nc(-c4ccccc4Cl)no3)n2)cc1
Q: Please list these compounds in decreasing order of RP-LC retention time. Answer by writing out the labels in the requested order.
A: III, I, II
(III: 1260 s, I: 843 s, II: 587 s)

1. Fc1cccc(CNc2cc(-n3cccn3)ncn2)c1
2. O=C(C1CCN(c2cnc(N3CCCC3)nc2)CC1)N1CCOCC1
Q: Just tell me: smaller RP-LC retention time value, 1 or 2 ? Answer = label.
A: 2

====

# experimental_protocol: gradient 5% acetonitrile 3 min, to 50% in 2 min, to 85% in 15 min, held 3 min, 100 µL/min
# experimental_parameters: column: Zorbax Extend-C18 2.1 x 50 mm; eluents: water / acetonitrile, 0.1% formic acid
observation_type: RP-LC retention time (s)

Examples with their reported RP-LC retention time follow.
| compound | observed |
| --- | --- |
| COCCCNc1nc(-c2ccc(OC)cc2)nc2ccccc12 | 690 |
| Cc1nc(-c2ccc(F)cc2)sc1C(=O)N1CCC(CC(=O)N(C)Cc2ccco2)CC1 | 890 |
| COc1ccc(CNC(=O)NC2CCN(c3ccc(F)cc3)C2=O)cc1 (centres undefined) | 697 |
| COc1ccc(Cc2nc3nccc(-c4ccsc4)n3n2)cc1 | 897 |
| Cc1cc2c(cc1NC(=O)c1cccs1)n(C)c(=O)c(=O)n2C | 663 |

a. CCc1ccc(NS(=O)(=O)c2cc3c(s2)CCN(C(=O)C2CCC2)C3)cc1
b. O=C(c1ccoc1)N1CCC(F)(C(=O)NC2CC2)CC1
Q: Given the listed records, identify the one among a and b with higher RP-LC retention time. Give the chosen item's label as your response.
A: a

====

# experimental_protocol: gradient 5% acetonitrile 3 min, to 50% in 2 min, to 85% in 15 min, held 3 min, 100 µL/min
# experimental_parameters: column: Zorbax Extend-C18 2.1 x 50 mm; eluents: water / acetonitrile, 0.1% formic acid
observation_type: RP-LC retention time (s)

Worked examples, 10 compounds total:
| compound | observation_type | unit_symbol | observed |
| --- | --- | --- | --- |
| COCc1nc2cccnc2n1C1CCN(C(=O)Nc2ccc(Br)cc2F)CC1 | RP-LC retention time | s | 746 |
| O=C(CN1C(=O)c2cccnc2Oc2ccccc21)NCCc1c[nH]c2ccccc12 | RP-LC retention time | s | 766 |
| CCOC(=O)c1noc2nc(C)nc(Nc3cccc(CC)c3)c12 | RP-LC retention time | s | 1140 |
| COc1ccc(-c2cn3c(CC(=O)N4c5ccccc5CC4C)csc3n2)cc1OC (stereo unspecified) | RP-LC retention time | s | 797 |
| COc1ccc(-c2noc(CCCC(=O)Nc3nc(-c4ccccc4)cs3)n2)cc1OC | RP-LC retention time | s | 982 |
| COc1cccc(N2CC(C(=O)N3CC(c4nc(Cc5ccccc5)no4)C3)CC2=O)c1 (stereo unspecified) | RP-LC retention time | s | 776 |
| COc1cccc(C2=NC3(CCN(C(C)C)CC3)NC(c3cc(Br)ccc3O)C2)c1 (stereo unspecified) | RP-LC retention time | s | 647 |
| COc1ccc(Cl)cc1NC(=O)NCCCn1c(C(F)(F)F)nc2cccnc21 | RP-LC retention time | s | 890 |
| CC(C)CCN1C[C@@H](CO)[C@H](c2nc(-c3cccnc3)no2)C1 | RP-LC retention time | s | 583 |
| O=C(NCC1CCS(=O)(=O)C1)c1cc(-c2ccccc2)on1 (stereo unspecified) | RP-LC retention time | s | 1010 |

A. CC(=O)N(Cc1nn(C)c2c1CN(S(=O)(=O)c1ccccc1F)CC2)c1ccccc1
B. Cn1nccc1-c1cccc(-c2noc(-c3ccccc3Br)n2)c1
Q: Could you tell me which of A and B has the lower RP-LC retention time reading? Field: selected label. Fill in the label of the entry you choose.
A: A

P. CCCN1C(=O)c2cc(S(=O)(=O)Nc3ccc(F)cc3C)ccc2Oc2cccnc21
Q. O=C(O)CCn1nnc2ccccc2c1=O
Q: Field: lower recorded RP-LC retention time (choose P or Q ) Choose, then provide that item's label.
A: Q
